Experiment: The drug is tested on WLS-073 corresponding to human gut metagenome with ENA study accession number: PRJEB37062 and ENA sample accession number: ERS12561749 for biotransformation under anaerobic condition. The drug concentrations were measured over 9 timepoints collected between 0 and 24 hours of incubation by liquid-chromatography-coupled mass spectrometry (LC–MS); further: call rule not given here
Details: 2 µM

molecule	Bacterial Biotransformation
CC(C)c1nc(N(C)S(C)(=O)=O)nc(-c2ccc(F)cc2)c1/C=C/[C@@H](O)C[C@@H](O)CC(=O)[O-].CC(C)c1nc(N(C)S(C)(=O)=O)nc(-c2ccc(F)cc2)c1/C=C/[C@@H](O)C[C@@H](O)CC(=O)[O-].[Ca+2]	Compound NOT metabolized
COc1ccc(/C=C/C(=O)Nc2ccccc2C(=O)O)cc1OC	Compound metabolized
CC(=O)OCC(=O)[C@@]1(OC(C)=O)[C@@H](C)C[C@H]2[C@@H]3C[C@H](F)C4=CC(=O)C=C[C@]4(C)[C@@]3(F)[C@@H](O)C[C@@]21C [DIFLORASONE DIACETATE]	Compound metabolized
CC(NC(C)(C)C)C(=O)c1cccc(Cl)c1 (stereo not drawn)	Compound NOT metabolized
O=C(CCCN1CCC2(CC1)C(=O)NCN2c1ccccc1)c1ccc(F)cc1	Compound NOT metabolized
CC#C[C@]1(O)CC[C@H]2[C@@H]3CCC4=CC(=O)CCC4=C3[C@@H](c3ccc(N(C)C)cc3)C[C@@]21C	Compound NOT metabolized
CC(CCc1ccccc1)NCC(O)c1ccc(O)c(C(N)=O)c1 (stereo not drawn)	Compound NOT metabolized
CN1CCC[C@@H]1CCO[C@](C)(c1ccccc1)c1ccc(Cl)cc1.O=C(O)/C=C/C(=O)O [CLEMASTINE FUMARATE]	Compound NOT metabolized
CC(=O)O[C@H]1C(=O)[C@@]2(C)[C@H]([C@H](OC(=O)c3ccccc3)[C@]3(O)C[C@H](OC(=O)[C@H](O)[C@@H](NC(=O)c4ccccc4)c4ccccc4)C(C)=C1C3(C)C)[C@]1(OC(C)=O)CO[C@@H]1C[C@@H]2O	Compound metabolized
CCCN(CCC)CCc1cccc2c1CC(=O)N2	Compound NOT metabolized
CCOc1cc(CC(=O)N[C@@H](CC(C)C)c2ccccc2N2CCCCC2)ccc1C(=O)O [REPAGLINIDE]	Compound metabolized
CCOc1ccccc1OCCN[C@H](C)Cc1ccc(OC)c(S(N)(=O)=O)c1.Cl [TAMSULOSIN HYDROCHLORIDE]	Compound NOT metabolized
CC(C)(C)NC(=O)[C@H]1CC[C@H]2[C@@H]3CC[C@H]4NC(=O)C=C[C@]4(C)[C@H]3CC[C@]12C [FINASTERIDE]	Compound metabolized
CN(C)C(=O)Oc1cccc([N+](C)(C)C)c1.[Br-] [NEOSTIGMINE BROMIDE]	Compound NOT metabolized
CCN1CCCC1CNC(=O)c1cc(S(=O)(=O)CC)c(N)cc1OC (stereo not drawn) [AMISULPRIDE]	Compound NOT metabolized
COC1=C(OC)C(=O)C(CCCCCCCCCCO)=C(C)C1=O	Compound metabolized
Nc1nc(NC2CC2)c2ncn([C@H]3C=C[C@@H](CO)C3)c2n1.Nc1nc(NC2CC2)c2ncn([C@H]3C=C[C@@H](CO)C3)c2n1.O=S(=O)(O)O [ABACAVIR SULFATE]	Compound metabolized
C=CC[C@@H]1/C=C(\C)C[C@H](C)C[C@H](OC)[C@H]2O[C@@](O)(C(=O)C(=O)N3CCCC[C@H]3C(=O)O[C@H](/C(C)=C/[C@@H]3CC[C@@H](O)[C@H](OC)C3)[C@H](C)[C@@H](O)CC1=O)[C@H](C)C[C@@H]2OC.O	Compound metabolized
CCN(CC)CCNC(=O)c1ccc(NC(C)=O)cc1 [ACECAINIDE]	Compound NOT metabolized
CCCC(C)(COC(N)=O)COC(=O)NC(C)C (stereo not drawn)	Compound metabolized
CNNCc1ccc(C(=O)NC(C)C)cc1	Compound NOT metabolized
N#Cc1ccc2[nH]cc(CCCCN3CCN(c4ccc5oc(C(N)=O)cc5c4)CC3)c2c1	Compound metabolized
O=C1N=C([O-])NC1(c1ccccc1)c1ccccc1.[Na+] [PHENYTOIN SODIUM]	Compound NOT metabolized
